Exercise: for every item that follows, state its recorded TGI.
Tested on: NCI-H23 lung
Assay: NCI tumour cell line growth inhibition, 48 h

-- ask Name the recorded TGI of the item "O=C(Cc1ccccc1)Oc1ccc2c(-c3ccccc3)c(C(=O)Nc3ccc(Cl)cc3)c(=O)oc2c1" in your answer.
-- reply > 100 µM

-- ask Name the recorded TGI of the item "COc1ccc(C[C@@H]2CN(C(=O)c3ccccc3)[C@H](Cc3ccc(O)cc3)CN2C(=O)c2ccccc2)cc1Br" in your answer.
-- reply > 100 µM

-- ask Name the recorded TGI of the item "O=[N+]([O-])/C(C(Cl)=C(Cl)Cl)=C1\Nc2ccccc2O1" in your answer.
-- reply > 100 µM

-- ask Name the recorded TGI of the item "O=C1C(=O)c2ccc(Br)cc2-c2cc(Br)ccc21" in your answer.
-- reply 13.2 µM

-- ask Name the recorded TGI of the item "ClCCN(CCCl)Cc1ccc(Nc2ccnc3cc(Cl)ccc23)cc1" in your answer.
-- reply 4.52 µM

-- ask Name the recorded TGI of the item CCCCN(CC)C(=O)C(=O)C1C(=O)Nc2ccccc2S1=O (centres undefined) in your answer.
-- reply > 100 µM

-- ask Name the recorded TGI of the item COc1ccc(C(=O)C2CC3(CCC2(O)c2ccc(OC)cc2)CC(=O)Nc2ccccc2C3=O)cc1 (centres undefined) in your answer.
-- reply > 100 µM

-- ask Name the recorded TGI of the item O=[N+]([O-])c1ccccc1S(=O)c1ccccc1 (centres undefined) in your answer.
-- reply > 100 µM

-- ask Name the recorded TGI of the item CC12CC3c4ccccc4CN1C3(c1ccccc1)OC2=O (centres undefined) in your answer.
-- reply > 100 µM

-- ask Name the recorded TGI of the item N#Cc1c(-c2ccco2)c2c(n(C3OC(CO)C(O)C(O)C3O)c1=S)CCCC2 (centres undefined) in your answer.
-- reply > 100 µM

-- ask Name the recorded TGI of the item "Cc1ccc(N=Nc2c(O)c3ccccc3[nH]c2=O)c(S(=O)(=O)N(C)C)c1" in your answer.
-- reply > 100 µM

-- ask Name the recorded TGI of the item "O=C(Cn1ccnc1[N+](=O)[O-])N(CCO)CCO" in your answer.
-- reply > 1250 µM

-- ask Name the recorded TGI of the item "CC(=O)O[C@]1(C(C)=O)CC[C@H]2[C@@H]3C[C@H](C)C4=CC(=O)C=C[C@]4(C)[C@@]3(F)[C@@H](O)C[C@@]21C" in your answer.
-- reply > 100 µM

-- ask Name the recorded TGI of the item CC1C(c2ccc(N(C)C)cc2)c2cc3c(cc2OC1N1CCCC1)OCO3 (centres undefined) in your answer.
-- reply > 100 µM

-- ask Name the recorded TGI of the item O=C(CCSC(CC(=O)c1ccc(Cl)cc1)c1ccc(Cl)cc1)Nc1ccc(Cl)cc1 (centres undefined) in your answer.
-- reply 30.4 µM

-- ask Name the recorded TGI of the item "O=c1c2cc([N+](=O)[O-])ccc2n2n1Cc1ccccc1CC2" in your answer.
-- reply > 100 µM

-- ask Name the recorded TGI of the item "Cc1ccc(NS(=O)(=O)c2ccc(-c3cnc(C4CC4)o3)cc2)cc1" in your answer.
-- reply 17.9 µM

-- ask Name the recorded TGI of the item "COc1c(C2(c3ccc(F)cc3)SCCCS2)c(=O)c1=O" in your answer.
-- reply > 100 µM

-- ask Name the recorded TGI of the item CCN(CC)c1ccc(NC(C(=O)c2ccccc2)c2ccccc2)cc1 (centres undefined) in your answer.
-- reply 4.67 µM

-- ask Name the recorded TGI of the item COC(=O)OC[C@H]1O[C@@H](n2cc(C)c(=O)[nH]c2=O)CC1OC(=O)OC (some centres undefined) in your answer.
-- reply > 100 µM

-- ask Name the recorded TGI of the item "CCC(=O)Sc1ccccc1C(=O)Nc1ccc(Cl)cc1" in your answer.
-- reply 39.2 µM

-- ask Name the recorded TGI of the item "COc1ccc2c(c1)O/C(=C\c1cccc(OCC(=O)Nc3nc4ccccc4s3)c1)C2=O" in your answer.
-- reply > 100 µM

-- ask Name the recorded TGI of the item "Cc1cc(N(CCCl)CCCl)ccc1C=Nc1cccnc1" in your answer.
-- reply > 100 µM

-- ask Name the recorded TGI of the item "CC1(C)CCC(S(=O)(=O)c2ccc3c(c2)/C(=N\O)c2cc(S(=O)(=O)N4CCC(O)(c5cccc(C(F)(F)F)c5)CC4)ccc2-3)CC1" in your answer.
-- reply 1.37 µM

-- ask Name the recorded TGI of the item "COc1ccc(-c2cc3cccc(OC)c3c(=O)o2)cc1OC" in your answer.
-- reply > 100 µM

-- ask Name the recorded TGI of the item "CN(C)c1c(Cl)c(=O)oc2c1ccc1nc(-c3ccccc3)sc12" in your answer.
-- reply > 100 µM

-- ask Name the recorded TGI of the item "C=C1C(=O)O[C@H]2[C@H]1CC/C(COC(=O)OCCCCCOC(=O)OC/C1=C/CC[C@@]3(C)O[C@H]3[C@H]3OC(=O)C(=C)[C@@H]3CC1)=C\CC[C@@]1(C)O[C@@H]21" in your answer.
-- reply 2.37 µM

-- ask Name the recorded TGI of the item "On1c(-c2ccccc2)c(-c2c(-c3ccccc3)n(O)c3ccccc23)c2ccccc21" in your answer.
-- reply 90.1 µM

-- ask Name the recorded TGI of the item "c1cc(-c2cscc2-c2ccsc2)cs1" in your answer.
-- reply > 100 µM

-- ask Name the recorded TGI of the item O=c1cnn(C2OC(CO)C(O)C(F)C2O)c(=O)[nH]1 (centres undefined) in your answer.
-- reply > 100 µM

-- ask Name the recorded TGI of the item "COc1cc(-c2c3c(cn2S(=O)(=O)c2ccccc2)-c2nc(N)sc2CC3)cc(OC)c1OC" in your answer.
-- reply > 100 µM

-- ask Name the recorded TGI of the item "N#CI1OC(=O)c2ccccc21" in your answer.
-- reply > 100 µM

-- ask Name the recorded TGI of the item "Cc1ncc([N+](=O)[O-])n1CCN(C)CCCCn1ccnc1[N+](=O)[O-]" in your answer.
-- reply > 100 µM

-- ask Name the recorded TGI of the item "COC(=O)[C@]1(C)CCCn2c(=O)n(-c3ccccc3)c(=O)n21" in your answer.
-- reply > 100 µM

-- ask Name the recorded TGI of the item "COc1ccc(-c2nc(-c3nc4ccc(F)cc4[nH]3)cc3c2[nH]c2ccccc23)cc1" in your answer.
-- reply 10.9 µM

-- ask Name the recorded TGI of the item "CO/C(=N\N=C(/C)C(F)(F)F)c1ccncc1" in your answer.
-- reply > 100 µM

-- ask Name the recorded TGI of the item "COC(=O)c1cnc2nc(N3CCOCC3)[nH]n2c1=O" in your answer.
-- reply > 100 µM

-- ask Name the recorded TGI of the item COc1ccc(C2CC(c3cc4c(C)c(C(=O)c5ccccc5)oc4cc3O)=Nc3ccccc3S2)cc1OC (centres undefined) in your answer.
-- reply > 100 µM

-- ask Name the recorded TGI of the item COc1ccc(-c2nc3ncccn3c2-c2ccc(S(C)=O)cc2)cc1 (centres undefined) in your answer.
-- reply > 100 µM

* * *

Test system: OVCAR-5 ovarian
Test: NCI tumour cell line growth inhibition, 48 h
observable: TGI

-- ask Tell me its TGI on OVCAR-5 ovarian: "COc1cc2c(cc1OC)C(=O)N(c1ccc(O)cc1)C2"
-- reply > 100 µM

-- ask Tell me its TGI on OVCAR-5 ovarian: COc1ccc(C(=O)C2CC3(CCC2(O)c2ccc(OC)cc2)CC(=O)Nc2ccccc2C3=O)cc1 (stereo not drawn)
-- reply > 100 µM

-- ask Tell me its TGI on OVCAR-5 ovarian: Fc1cccc(F)c1C1SCC2=Nc3ccccc3CN21 (stereo not drawn)
-- reply > 100 µM

* * *

System: M14 melanoma
Experiment: NCI tumour cell line growth inhibition, 48 h
Where a SMILES comes first, the peptide text is derived from it. [ ]: non-standard residue; d: D form. The star is where a group is joined. hSer = N[CH](CCO)C(=O)O; Boc = CC(C)(C)OC(=O)*
observable: TGI

-- ask Name the recorded TGI of the item CN(C)CCC1(C2=CCCC2)CC/C(=C\c2ccc3c(c2)OCO3)C1=O (stereo unspecified) in your answer.
-- reply 28.3 µM

-- ask Name the recorded TGI of the item COc1cc2c(cc1OC)C1c3ccccc3C(C#N)(C2)N(C(=O)c2ccccc2)C1O (stereo unspecified) in your answer.
-- reply > 100 µM

-- ask Name the recorded TGI of the item "Cc1cc(N(CCCl)CCCl)ccc1C=Nc1cccnc1" in your answer.
-- reply > 100 µM

-- ask Name the recorded TGI of the item "CC1=CC[C@@H]2[C@@H](CC[C@@]2(C)O)C(C)(C)[C@H]1CC[C@@H]1[C@@]2(C)CCC(=O)C(C)(C)O[C@@H]2CC[C@]1(C)O" in your answer.
-- reply 59.3 µM

-- ask Name the recorded TGI of the item COc1ccc(-c2nc3ncccn3c2-c2ccc(S(C)=O)cc2)cc1 (stereo unspecified) in your answer.
-- reply > 100 µM

-- ask Name the recorded TGI of the item "COc1ccc(-c2cc3cccc(OC)c3c(=O)o2)cc1OC" in your answer.
-- reply > 100 µM

-- ask Name the recorded TGI of the item "O=C1N[C@H]2c3c(Cl)sc(Cl)c3C(=O)[C@H]2O1" in your answer.
-- reply 52.6 µM

-- ask Name the recorded TGI of the item "CC(C)(C)c1nc2c(o1)C(=Nc1ccccc1)c1ccccc1C2=O" in your answer.
-- reply 6.1 µM

-- ask Name the recorded TGI of the item COc1ccc(C2SCC(=O)N2N=C2NC(=O)CC(=O)N2)cc1 (stereo unspecified) in your answer.
-- reply > 100 µM

-- ask Name the recorded TGI of the item "COc1cc2c(cc1OC)C(=O)N(c1ccc(O)cc1)C2" in your answer.
-- reply > 100 µM

-- ask Name the recorded TGI of the item "Oc1ccc(-c2cc(-c3c(O)cc(O)cc3O)on2)cc1" in your answer.
-- reply > 100 µM

-- ask Name the recorded TGI of the item "Cc1cc(Br)c(N2C3=C(CC4=C2CCCC4=O)C(=O)CCC3)c(Br)c1" in your answer.
-- reply > 100 µM

-- ask Name the recorded TGI of the item "Brc1c[n+](Cc2ccc3ccccc3c2)cn1Cc1ccc2ccccc2c1" in your answer.
-- reply 2.92 µM

-- ask Name the recorded TGI of the item COCCC(NC(=O)C(CC(C)C)NC(=O)OC(C)(C)C)C(N)=O (stereo not drawn) (Boc-Leu-[hSer](Me)-NH2; configuration not given here) in your answer.
-- reply > 100 µM

-- ask Name the recorded TGI of the item C=C(NC(=O)C(=C)NC(=O)c1csc(C2=NC3c4csc(n4)C4NC(=O)c5csc(n5)C(C(C)(O)C(C)O)NC(=O)C5CSC(=N5)/C(=C/C)NC(=O)C(C(C)O)NC(=O)c5csc(n5)C3(CC2)NC(=O)C(C)NC(=O)C(=C)NC(=O)C(=C)NC(=O)C(C(C)C)NC2C=Cc3c(C(C)O)cc(nc3C2O)C(=O)OC4C)n1)C(N)=O (stereo unspecified) in your answer.
-- reply > 28.5 µM

-- ask Name the recorded TGI of the item "O=C(NC1CCCCC1)c1c(O)[nH]c(=S)[nH]c1=O" in your answer.
-- reply > 100 µM
